- System: HeLa S3
- protocol_summary: XTT cytotoxicity assay, HeLa S3
- Assay type: cell-based
- condition_label: Homo sapiens, HeLa S3; 72 h incubation; read-out: XTT, IC50 HeLa S3
pIC50: −log10 of the molar value.
The reader will find reported pIC50 values listed item by item below.
observed_property: pIC50

Cc1ncnc2c1c(-c1cccs1)cn2[C@@H]1O[C@H](CO)[C@@H](O)[C@H]1O; < 4.82
CNc1ncnc2c1c(-c1ccsc1)cn2[C@@H]1O[C@H](CO)[C@@H](O)[C@H]1O; < 4.70
CNc1ncnc2c1c(-c1cc3ccccc3o1)cn2[C@@H]1O[C@H](CO)[C@@H](O)[C@H]1O; < 4.70
Cc1ncnc2c1c(-c1ccoc1)cn2[C@@H]1O[C@H](CO)[C@@H](O)[C@H]1O; < 4.70

====

- Tested on: BJ
- protocol_summary: Cytostatic/cytotoxic MTT assay, BJ fibroblasts
- Assay type: cell-based
- condition_label: Homo sapiens, non-malignant fibroblasts, 72 h, read-out: MTT, IC50 BJ
pIC50: −log10 of the molar value.
observed_property: pIC50

COc1ncnc2c1c(-c1cccs1)cn2[C@@H]1O[C@H](CO)[C@@H](O)[C@H]1O; 4.20
CN(C)c1ncnc2c1c(I)cn2[C@@H]1O[C@H](CO)[C@@H](O)[C@H]1O; 4.34
Cc1ncnc2c1c(-c1cc3ccccc3o1)cn2[C@@H]1O[C@H](CO)[C@@H](O)[C@H]1O; 4.03

====

In this section, each of the compounds is paired with its reported IC50.
- Test system: BJ
- protocol_summary: Cytostatic/cytotoxic MTT assay, BJ fibroblasts
- Type: cell-based
- condition_label: Homo sapiens, non-malignant fibroblasts, 72 h, read-out: MTT, IC50 BJ
observed_property: IC50

CNc1ncnc2c1c(-c1ccsc1)cn2[C@@H]1O[C@H](CO)[C@@H](O)[C@H]1O [Compound 3d]; > 100 µM
CNc1ncnc2c1c(-c1ccccc1)cn2[C@@H]1O[C@H](CO)[C@@H](O)[C@H]1O [Compound 3e]; > 100 µM
CNc1ncnc2c1c(-c1cccs1)cn2[C@@H]1O[C@H](CO)[C@@H](O)[C@H]1O [Compound 3c]; > 100 µM
